Give measured residual activity for each item. Keep answers brief.
targetOfAssay: CSNK1E (human) (UniProt P49674)
Sequence (P49674 whole entry, looked up): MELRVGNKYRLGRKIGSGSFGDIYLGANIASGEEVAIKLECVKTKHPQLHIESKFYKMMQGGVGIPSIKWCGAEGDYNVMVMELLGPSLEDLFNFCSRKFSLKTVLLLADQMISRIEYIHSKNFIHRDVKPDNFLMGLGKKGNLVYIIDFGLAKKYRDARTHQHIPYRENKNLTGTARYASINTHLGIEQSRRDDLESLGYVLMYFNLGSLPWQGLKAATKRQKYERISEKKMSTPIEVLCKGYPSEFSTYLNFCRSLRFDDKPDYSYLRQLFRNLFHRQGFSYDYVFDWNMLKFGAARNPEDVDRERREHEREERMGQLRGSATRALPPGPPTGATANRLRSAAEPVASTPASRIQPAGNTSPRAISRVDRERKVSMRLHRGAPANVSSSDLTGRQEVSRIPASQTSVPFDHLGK
methodNotes: radiometric filter-binding kinase assay, Kinase HotSpot
recordedConditions: compound 0.5 µM; ATP 10 µM
The reply should contain only the number, in %.

### Prompt Lab note: need residual activity for Nc1nnc2[nH]c3ccccc3nc1-2 on CSNK1E (human) (UniProt P49674), anyone have it?
### Response 90.2

### Prompt How about CC(C)[C@H](CO)Nc1nc(Nc2cc(N)cc(Cl)c2)c2ncn(C(C)C)c2n1 ?
### Response 82.7

### Prompt Entry CN([C@@H](Cc1ccc(OS(=O)(=O)c2cccc3cnccc23)cc1)C(=O)N1CCN(c2ccccc2)CC1)S(=O)(=O)c1cccc2cnccc12 please
### Response 103

### Prompt CC(=O)O/N=C1\C(=C2\C(=O)Nc3cc(Br)ccc32)Nc2ccccc21 , same question.
### Response 55.8

----------
Exercise: state measured residual activity for each of the compounds provided.
targetOfAssay: MAP3K14 (human) (UniProt Q99558)
Sequence (Q99558 whole entry, looked up): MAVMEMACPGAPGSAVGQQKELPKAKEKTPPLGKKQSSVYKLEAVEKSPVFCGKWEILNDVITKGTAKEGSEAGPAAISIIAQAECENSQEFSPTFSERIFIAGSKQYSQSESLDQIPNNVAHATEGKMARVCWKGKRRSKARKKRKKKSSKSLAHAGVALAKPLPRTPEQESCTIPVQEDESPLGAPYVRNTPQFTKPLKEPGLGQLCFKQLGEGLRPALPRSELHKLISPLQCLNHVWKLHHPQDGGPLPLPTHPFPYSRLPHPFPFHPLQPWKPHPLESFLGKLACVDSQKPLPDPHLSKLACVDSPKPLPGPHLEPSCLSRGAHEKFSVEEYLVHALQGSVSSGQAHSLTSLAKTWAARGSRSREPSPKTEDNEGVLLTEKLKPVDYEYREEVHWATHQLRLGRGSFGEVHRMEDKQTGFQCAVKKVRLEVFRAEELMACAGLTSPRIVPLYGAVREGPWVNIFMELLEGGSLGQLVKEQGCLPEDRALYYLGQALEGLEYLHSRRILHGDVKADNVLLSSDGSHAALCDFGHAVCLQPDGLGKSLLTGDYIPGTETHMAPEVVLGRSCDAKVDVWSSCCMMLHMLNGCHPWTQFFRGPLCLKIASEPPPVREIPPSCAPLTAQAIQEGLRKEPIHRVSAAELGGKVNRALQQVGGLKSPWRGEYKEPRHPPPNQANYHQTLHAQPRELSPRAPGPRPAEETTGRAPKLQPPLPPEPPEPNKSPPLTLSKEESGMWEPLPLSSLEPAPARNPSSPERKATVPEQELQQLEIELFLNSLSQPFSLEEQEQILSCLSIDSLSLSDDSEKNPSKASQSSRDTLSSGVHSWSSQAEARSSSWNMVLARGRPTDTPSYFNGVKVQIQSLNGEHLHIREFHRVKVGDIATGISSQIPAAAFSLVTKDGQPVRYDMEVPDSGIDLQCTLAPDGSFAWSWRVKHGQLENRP
methodNotes: radiometric filter-binding kinase assay, Kinase HotSpot
recordedConditions: compound 0.5 µM; ATP 10 µM
Give a bare numeral; the unit % is implied.

### Prompt Query: residual activity; subject: Nc1nnc2[nH]c3ccccc3nc1-2
### Response 99.2

### Prompt // next record CC(C)[C@H](CO)Nc1nc(Nc2cc(N)cc(Cl)c2)c2ncn(C(C)C)c2n1
### Response 100

### Prompt Another: O=C1NC(=O)/C(=C\c2ccc3nccnc3c2)S1
### Response 101

### Prompt Would you mind doing O=C1Nc2ccccc2/C1=C1\Nc2ccccc2\C1=N/O as well?
### Response 88.7

### Prompt Repeat for the following compound: Cn1nc2c3c(cccc31)C(=O)c1ccccc1-2
### Response 107

### Prompt Then this compound: O=C1Nc2ccccc2/C1=C1/Nc2ccccc2/C1=N\OCCC(O)CO (stereo unspecified)
### Response 89

----------
Assignment: determine reported residual activity for the given molecules.
targetOfAssay: MERTK (human) (UniProt Q12866)
Sequence (Q12866 whole entry, looked up): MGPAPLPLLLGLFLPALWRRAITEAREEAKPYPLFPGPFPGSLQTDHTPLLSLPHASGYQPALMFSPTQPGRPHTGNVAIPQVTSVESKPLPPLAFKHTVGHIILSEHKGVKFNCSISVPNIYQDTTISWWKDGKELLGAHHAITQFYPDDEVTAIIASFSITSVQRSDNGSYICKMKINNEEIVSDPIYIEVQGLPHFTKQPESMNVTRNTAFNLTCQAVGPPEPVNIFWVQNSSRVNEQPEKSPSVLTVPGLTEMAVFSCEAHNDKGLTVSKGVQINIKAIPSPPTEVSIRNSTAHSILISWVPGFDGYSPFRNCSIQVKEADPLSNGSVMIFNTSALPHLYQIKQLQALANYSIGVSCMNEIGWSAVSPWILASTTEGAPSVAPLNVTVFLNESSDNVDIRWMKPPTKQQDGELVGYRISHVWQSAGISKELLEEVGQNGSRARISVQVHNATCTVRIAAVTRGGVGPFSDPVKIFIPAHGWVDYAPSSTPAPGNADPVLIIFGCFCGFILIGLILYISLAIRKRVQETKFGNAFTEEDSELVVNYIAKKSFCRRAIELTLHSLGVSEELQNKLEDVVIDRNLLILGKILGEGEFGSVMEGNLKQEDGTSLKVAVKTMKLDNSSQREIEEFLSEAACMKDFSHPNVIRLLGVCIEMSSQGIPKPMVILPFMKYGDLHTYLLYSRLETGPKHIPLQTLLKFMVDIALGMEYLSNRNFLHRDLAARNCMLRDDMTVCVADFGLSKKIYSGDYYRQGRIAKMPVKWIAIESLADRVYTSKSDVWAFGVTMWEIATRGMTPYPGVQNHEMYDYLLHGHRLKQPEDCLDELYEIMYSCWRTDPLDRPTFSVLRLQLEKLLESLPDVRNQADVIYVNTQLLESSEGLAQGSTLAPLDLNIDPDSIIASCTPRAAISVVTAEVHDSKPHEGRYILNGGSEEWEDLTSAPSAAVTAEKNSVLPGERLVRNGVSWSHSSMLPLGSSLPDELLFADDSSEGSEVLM
methodNotes: radiometric filter-binding kinase assay, Kinase HotSpot
recordedConditions: compound 0.5 µM; ATP 10 µM
// return numeric value only (unit: %, not printed)

### Prompt Looking for the measured residual activity of O=C1NC(=O)C(c2cn(CCCO)c3ncccc23)=C1c1cnccn1 , can you help?
### Response 78.7

### Prompt Try the molecule O=C1Nc2ccccc2/C1=C1\Nc2ccccc2\C1=N/O
### Response 82.2

### Prompt And then CCN(CC)CCCCN1c2ccccc2Oc2ccc(Cl)cc21 , what is it?
### Response 95.5

### Prompt Subsequent entry: O=C1Cc2c([nH]c3ccc(Br)cc23)-c2ccccc2N1
### Response 89.5

### Prompt Consider next the molecule Cn1nc2c3c(cccc31)C(=O)c1ccccc1-2 in the same way.
### Response 95.9

### Prompt Please answer likewise for CC(=O)O/N=C1\C(=C2\C(=O)Nc3cc(Br)ccc32)Nc2ccccc21
### Response 77

### Prompt Another molecule to check: Cn1cnc2cc3c(Nc4cccc(Br)c4)ncnc3cc21
### Response 77.5

### Prompt Field entry: Oc1ccc(Nc2nc(-c3ccc(Cl)cc3)cs2)cc1
### Response 97.1

### Prompt Cool, now O=C(Nc1cccc(Nc2cc(Nc3cccc(C(F)(F)F)c3)ncn2)c1)C1CC1
### Response 97.3

### Prompt Entry to check: O=C(CCCc1ccc(-c2ccccc2F)cc1)Nc1ccc(O)cc1
### Response 98.8

### Prompt Please do the same for O=C(O)/C=C/c1cc(Br)c(Br)c(Br)c1Br as well.
### Response 92.4
